The reported measurements were obtained from patent US20210380703A1.

Molecular target: Mouse ACVR2A (mouse, UniProt P27038 20-135, limits assumed); note: test concentration or dose not given here
Sequence (P27038 20-135 limits assumed): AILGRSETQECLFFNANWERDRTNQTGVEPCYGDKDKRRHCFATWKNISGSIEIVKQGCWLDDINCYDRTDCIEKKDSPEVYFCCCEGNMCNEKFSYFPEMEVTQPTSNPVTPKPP
Test: ELISA
Please go through the items and note down their optical density.

368_D02 (antibody, V domains shown, VH/VL only) VH: EVQLLESGGGLVQPGGSLRLSCAASGFTFDDYGMNWVRQAPGKGLEWVSNINYNGGYTGYADSVKGRFTISRDNSKNTLYLQMNSLRAEDTAVYYCARGATWHDTHLDYWGQGTLVTVSS VL: DIQMTQSPSSLSASVGDRVTITCRASQSISTYLNWYQQKPGKAPKLVIYAATSRHSGVPSRFSGSGSGTDFTLTISSLQPEDFATYYCQQSYDTPLTFGGGTKVEIK	2.26 OD

Now for the binder whose optical density we want.
### Prompt Give its optical density value. Item: 370_F12 (antibody, V domains shown, VH/VL only) VH: EVQLLESGGGLVQPGGSLRLSCAASGFTFSDYSMNWVRQAPGKGLEWVANINYNGGYTGYADSVKGRFTISRDNSKNTLYLQMNSLRAEDTAVYYCARGATWHDTHLDYWGQGTLVTVSS VL: DIQMTQSPSSLSASVGDRVTITCRASQSILSYLNWYQQKPGKAPKLLIYAASSLQSGVPSRFSGSGSGTDFTLTISSLQPEDFATYYCQQSYDSPLTFGGGTKVEIK
### Response 3.57 OD
